ASSAY_ENDPOINT: melting point

Past entries and their recorded results:
>>> value_reported("CN(C)c1ccc(C2NCCc3sccc32)cc1 (stereo not drawn)")
"95 to 98 °C"
>>> value_reported("Cc1ccc(NS(=O)(=O)c2cccc(C#N)c2)c2[nH]cc(C#N)c12")
"220 to 221 °C"

Now for the compound whose melting point we want.
# input Reported melting point, compound CCCc1nc(Br)c(C(=O)O)n1Cc1ccc(-c2ccccc2S(=O)(=O)NC(=O)NCc2ccccc2)cc1 : ____
# output 128 °C

---

ASSAY_ENDPOINT: melting point

Past entries and their recorded results:
>>> value_reported("COC(=O)C1=C(C)NC(C)=C(Cl)C1c1ccccc1 (stereo unspecified)")
"147 °C"
>>> value_reported("O=C(OCc1cc(-c2ccccc2)c(=O)n2c1-c1sccc1CC2)N1CCOCC1")
"163 to 164 °C"
>>> value_reported("Cc1cccc2cc3c(=O)n(CCc4c[nH]c5ccccc45)cc(C(=O)NCCN(C)C)c3nc12")
"105 to 107 °C"

# input Reported melting point, molecule CC(C)(C)OC(=O)N1CCOc2ccc(Br)cc2S1(=O)=O : ____
# output 119 °C

# input Cool, now COC(=O)C(OCc1ccc(-c2ccc(Cl)cc2)cc1)(C(F)(F)F)C(F)(F)F
# output 61.5 to 62.5 °C

All values here come from a melting point compilation (Tetko et al.; mined from patent text by program, amines drawn as free bases though some values may be those of a salt).
